Value source: patent US20220233652A1

test protocol: Preliminary solubility test of INS peptide salts in co-solvents and water
Format: physicochemical
settings: DMSO; read-out: Approximate Solubility
No end group written: not given here.
quantity name: solubility

Data request: For the sequence WTAVQMAVFIHNFKRK [INS HCl] , what solubility is on record?
Data returned: ≤ 10 mg/mL

###

test protocol: Preliminary solubility test of INS peptide salts in co-solvents and water
Type: physicochemical
settings: propylene glycol (PG); read-out: Approximate Solubility
No end group written: not given here.
quantity name: solubility

Data request: Report solubility for WTAVQMAVFIHNFKRK [INS HCl] please.
Data returned: 5000 to 10000 µg/mL

###

test protocol: Preliminary solubility test of INS peptide salts in co-solvents and water
Format: physicochemical
settings: PEG400; read-out: Approximate Solubility
No end group written: not given here.
quantity name: solubility

Data request: What does the data say about its solubility? Entry: WTAVQMAVFIHNFKRK [INS HCl]
Data returned: < 5000 µg/mL

###

test protocol: Preliminary solubility test of INS peptide salts in co-solvents and water
Type: physicochemical
settings: ethanol; read-out: Approximate Solubility
No end group written: not given here.
quantity name: solubility

Data request: Please look up its solubility: WTAVQMAVFIHNFKRK [INS HCl]
Data returned: < 5000 µg/mL

###

test protocol: Preliminary solubility test of INS peptide salts in co-solvents and water
Format: physicochemical
settings: water, pH 2.6; H2O; read-out: Approximate Solubility
No end group written: not given here.
quantity name: solubility

Data request: GET /values?readout=solubility&item= WTAVQMAVFIHNFKRK [INS HCl]
Data returned: > 10000 µg/mL
